# target under test: T1, human hepcidin-25 (human, not fully specified)
# T1 construct: also called human mature hepcidin
# T1 peptide: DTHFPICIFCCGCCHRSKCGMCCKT
# test protocol: SPR (BIAcore), Fab captured on goat anti-human kappa, human hepcidin-25 injected, 25 C

binder: Fab 3.12 (Fab, V domains shown, Fab with human kappa, from E. coli periplasm; frameworks O2 and VH1-69) VH: QVQLVQSGAEVKKPGSSVKVSCKASGYTFLIYPISWVRQAPGQGLEWMGNFHPYLGVTNYLEKFKGRVTITADKSTSTAYMELSSLRSEDTAVYYCARGGTGSFDYWGQGTTVTVSS VL: DIQMTQSPSSLSASVGDRVTITCSASSRVSSTYLFWYQQKPGKAPKLLIYRTSTLTSGVPSRFSGSGSGTDFTLTISSLQPEDFATYYCQQWSGYPFVFGGGTKVEIK
kon (M⁻¹ s⁻¹): 3.94e+06

binder: Fab 1.7 (Fab, V domains shown, Fab with human kappa) VH: QVQLVQSGAEVKKPGSSVKVSCKASGYTFTIYPISWVRQAPGQGLEWMGNFHPYLGDTRYVEKFKGRVTITADKSTSTAYMELSSLRSEDTAVYYCARGGTGSFDYWGQGTTVTVSS VL: DIQMTQSPSSLSASVGDRVTITCSASSRVSSTYLFWYQQKPGKAPKLLIYRTSTLVSGVPSRFSGSGSGTDFTLTISSLQPEDFATYYCQQWSGYPFVFGGGTKVEIK
kon (M⁻¹ s⁻¹): 3.8e+06

binder: Fab 3.23 (Fab, V domains shown, Fab with human kappa, from E. coli periplasm; frameworks O2 and VH1-69) VH: QVQLVQSGAEVKKPGSSVKVSCKASGYTFLIYPISWVRQAPGQGLEWMGNFHPYLGVTNYVEKFKGRVTITADKSTSTAYMELSSLRSEDTAVYYCARGGTGSFDYWGQGTTVTVSS VL: DIQMTQSPSSLSASVGDRVTITCSASSRVSSTYLFWYQQKPGKAPKLLIYRTSPLASGVPSRFSGSGSGTDFTLTISSLQPEDFATYYCQQWSGYPFVFGGGTKVEIK
kon (M⁻¹ s⁻¹): 3.53e+06

binder: Fab Hu22 (Fab, V domains shown, Fab with human kappa, from E. coli periplasm; frameworks O2 and VH1-69) VH: QVQLVQSGAEVKKPGSSVKVSCKASGYTFTIYPISWVRQAPGQGLEWMGNFHPYLGDTNYNEKFKGRVTITADKSTSTAYMELSSLRSEDTAVYYCARGGTGSFDYWGQGTTVTVSS VL: DIQMTQSPSSLSASVGDRVTITCSASSRVSSTYLFWYQQKPGKAPKLLIYRTSTLASGVPSRFSGSGSGTDFTLTISSLQPEDFATYYCQQWSGYPFTFGGGTKVEIK
kon (M⁻¹ s⁻¹): 7.05e+06
